target.desc: UniProt:P23944
Sequence (P23944 whole entry): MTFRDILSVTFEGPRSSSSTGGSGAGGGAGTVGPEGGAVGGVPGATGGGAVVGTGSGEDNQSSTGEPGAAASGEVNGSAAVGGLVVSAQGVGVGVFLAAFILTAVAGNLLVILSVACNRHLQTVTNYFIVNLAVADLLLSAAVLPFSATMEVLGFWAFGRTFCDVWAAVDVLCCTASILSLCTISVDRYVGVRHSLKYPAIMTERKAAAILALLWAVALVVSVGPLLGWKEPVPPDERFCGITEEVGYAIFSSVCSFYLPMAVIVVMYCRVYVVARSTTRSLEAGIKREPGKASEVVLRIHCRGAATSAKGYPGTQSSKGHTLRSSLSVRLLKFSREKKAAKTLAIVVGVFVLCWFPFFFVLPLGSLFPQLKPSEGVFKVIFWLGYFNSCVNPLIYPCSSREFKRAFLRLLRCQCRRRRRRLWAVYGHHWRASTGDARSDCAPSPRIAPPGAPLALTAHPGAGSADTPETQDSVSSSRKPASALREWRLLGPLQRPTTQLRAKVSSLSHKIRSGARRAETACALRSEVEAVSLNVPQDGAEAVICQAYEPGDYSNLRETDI
assay.explanation: Antagonist activity at Alpha-1D adrenoceptor in Wistar rat thoracic aorta assessed as inhibition of (-)-noradrenaline-induced contraction after 30 mins
Type: functional, tissue-based
pKb below 7 gives F; pKb at or above it gives T.

hey, is pKb for this one >= 7? COc1cccc(OC)c1OCCNC[C@@H]1COC[C@H](c2ccccc2)O1 (relative stereo) F

How about COc1ccccc1OCCNC[C@@H]1COC(c2ccccc2)(c2ccccc2)CO1 ? T

How about COc1ccccc1OCCNC[C@@H]1COC[C@@H](c2ccccc2)O1 (relative stereo) ? T

How about COc1cccc(OC)c1OCCNC[C@@H]1CO[C@H](c2ccccc2)CO1 (relative stereo) ? F

* * *

Record form. Attribute: pD2. Fill in for each entry.
target.desc: 5-hydroxytryptamine receptor 1A (Homo sapiens)
assay.explanation: Agonist activity at human cloned 5HT1A receptor expressed in human HeLa cell membrane assessed as stimulation of [35S]GTPgammaS binding
Assay type: functional, cell membranes
Answers are plain numbers.

# annotated cases, reported pD2 shown
# compound, pD2
measured = [
    ("COc1ccccc1OCCNC[C@@H]1CO[C@H](c2ccccc2)CO1 (relative stereo)", 7.88),
    ("COc1cccc(OC)c1OCCNC[C@@H]1COCC(c2ccccc2)(c2ccccc2)O1", 8.28),
    ("NCCc1c[nH]c2ccc(O)cc12", 7.3),
    ("NCCc1c[nH]c2ccc(C(N)=O)cc12", 8.45),
    ("c1ccc(OCCNC[C@@H]2COCC(c3ccccc3)(c3ccccc3)O2)cc1", 9.11),
    ("COc1ccccc1N1CCN(CCN2C(=O)CC3(CCCC3)CC2=O)CC1", 9.27),
]

// moving on: another record for pD2
Could you share which pD2 value was measured for COc1ccccc1OCCNC[C@@H]1COCC(c2ccccc2)(c2ccccc2)O1 ? 9.4

* * *

Target chain: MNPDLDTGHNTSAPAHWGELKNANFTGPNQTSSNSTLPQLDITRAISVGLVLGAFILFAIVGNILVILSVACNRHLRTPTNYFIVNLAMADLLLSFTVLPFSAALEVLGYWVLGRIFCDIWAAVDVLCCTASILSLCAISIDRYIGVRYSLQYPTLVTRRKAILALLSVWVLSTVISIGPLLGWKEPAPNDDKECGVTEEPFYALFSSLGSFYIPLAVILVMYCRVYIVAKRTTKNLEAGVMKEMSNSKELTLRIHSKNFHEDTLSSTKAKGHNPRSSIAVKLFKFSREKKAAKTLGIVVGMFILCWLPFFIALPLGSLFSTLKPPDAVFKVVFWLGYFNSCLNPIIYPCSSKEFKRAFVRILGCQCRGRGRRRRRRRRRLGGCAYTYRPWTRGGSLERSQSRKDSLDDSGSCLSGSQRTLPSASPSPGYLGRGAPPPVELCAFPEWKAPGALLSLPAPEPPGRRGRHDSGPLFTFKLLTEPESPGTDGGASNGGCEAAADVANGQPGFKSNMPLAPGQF
reported.metric: Ki (nM)
Answers are plain numbers, in nM.

# annotated cases, reported Ki shown
# compound, Ki (nM)
measured = [
    ("COc1cccc(OC)c1OCCNC[C@@H]1COCC(c2ccccc2)(c2ccccc2)O1", 324),
    ("COc1ccccc1OCCNC[C@@H]1CO[C@@H](c2ccccc2)CO1 (relative stereo)", 282),
    ("COc1ccccc1OCCNC[C@@H]1CO[C@H](c2ccccc2)CO1 (relative stereo)", 263),
]

// moving on: another record for Ki
Could you share which Ki value was measured for COc1ccccc1OCCNC[C@@H]1COC[C@@H](c2ccccc2)O1 (relative stereo) ? 302
